- assaySummary: binders from COS7 lysate, DM2A8 probe, primary screen, torsin A project, cell lysate, small-molecule microarray, fluorescence 635/667 (AID 1065)
- assayConditions: higher = more signal, COS7 lysate expressing mutant human TOR1A
The recorded composite z-score of each item maps onto one of these classes: class 0 (below 0.3), class 1 (0.3 to below 0.7), class 2 (0.7 or more)

As a guide, the following entries are already answered.
| compound | classification |
| --- | --- |
| O=C(NCCN1CCOCC1)[C@@H]1c2ccccc2C(=O)N(Cc2ccccc2Cl)[C@H]1c1ccc(CO)cc1 | class 0 |
| C=CC[C@]1(C(=O)N2CCCCC2)N=C(c2ccc(OCCCO)cc2)O[C@H]1c1ccccc1CN=[N+]=[N-] | class 1 |
| Cc1ccc(S[C@]2(C(=O)NCC(F)(F)F)CC(=O)N(Cc3cc(C(F)(F)F)cc(C(F)(F)F)c3)[C@@H]2c2ccc(CO)cc2I)cc1 | class 2 |

stdin: // return the class label for OCCCC1=CC(c2ccc(CN3CCCC3)cc2)N(Cc2cc3c(cc2Br)OCO3)CC1 (stereo not given)
stdout: class 1

stdin: State the class of the compound shown: `COC(=O)[C@@]1(Cc2ccc(OC)cc2)[C@H]2c3cc(C(=O)N4CCCC4)n(CCO)c3C[C@H]2CN1C(=O)c1ccccc1`
stdout: class 0

stdin: Textbook exercise: identify the category of the compound given here, `[N-]=[N+]=Nc1ccccc1[C@@H]1OC(c2ccc(OCCCO)cc2)=N[C@]1(Cc1ccccc1)C(=O)O` , according to its measured value.
stdout: class 1

###

- assaySummary: hepatitis C replication reporter changes, two-sided – Huh7 cells, luciferase reporter, HCV replication inhibitor project, primary screen (AID 1109);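 further: huh7 hepatoma cells harbouring a luciferase neomycin HCV replicon reporter; luciferase luminescence as measure of HCV replicon replication; test concentration not given here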
- assayConditions: Huh7 HCV replicon luciferase reporter, 48 h; higher = more signal
readoutType: z-score
Answers are plain numbers.

| molecule | readoutType | assayResult |
| --- | --- | --- |
| CCOC(=O)C[C@H]1[C@H](OC(=O)Cc2ccc3c(c2)OCO3)[C@@H](NC(=O)c2ccc3ccccc3n2)c2cc(OCCCO)ccc2N1C(=O)c1ccccc1 | z-score | -1.26 |

I have 3 molecules here; please give me z-score for each one.
1. C=C[C@H](C)[C@H](OC(=O)Nc1ccc(SC)cc1)c1ccc(OCCO)cc1
2. COCCOC(=O)N1C(=O)[C@@]2(c3cc(C#CC4=CCCCC4)ccc31)[C@H](c1ccccc1OCCO)N1[C@H](c3ccccc3)[C@H](c3ccccc3)OC(=O)[C@H]1[C@@H]2C(=O)N1CCN(c2ncccn2)CC1
3. CCOC(=O)C[C@H]1[C@H](OC(=O)c2ccccc2-c2ccccc2)[C@@H](NC(=O)c2ccc3ccccc3n2)c2cc(OCCCO)ccc2N1C(=O)Cc1ccc(OC)cc1

stdout:
-1.19
-2.1
-2.09

I would be grateful if you could provide z-score for each of the following entries.
1. CC(C)(C)OC(=O)CC[C@@]1(C(=O)NCC(O)CO)N=C(c2ccc(OCCCO)cc2)O[C@@H]1c1ccccc1CN=[N+]=[N-] (stereo partly drawn)
2. COCC(=C=CC[C@H](O)c1ccc(OCCO)cc1)CCO
3. CCCC[C@@H](O)C1=C(COc2ccccc2)C[C@H]2C(=O)N(Cc3ccccc3)C(=O)[C@H]2[C@H]1CO
4. [N-]=[N+]=Nc1ccccc1C[C@]1(C(=O)NCCN2CCOCC2)COC(c2ccc(OCCCO)cc2)=N1

stdout:
1. -0.75
2. -0.794
3. -2.3
4. -1.92

###

- assaySummary: probe aNOTCH2 binding on compound microarray – biochemical, small-molecule microarray, 635/667 nm fluorescence, primary screen (AID 1121);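 further: score merges feature fluorescence read at 667 nm with its signal to noise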
- assayConditions: higher = more signal
Exercise: for every item that follows, state its recorded composite z-score.
One number for each entry.

Here are 4 molecules together with their reported answers.
| molecule | composite z-score |
| --- | --- |
| COc1ccc([Si](C)(C)[C@@H]2[C@@H](CCO)O[C@]3(C(=O)N(Cc4ccccc4)c4ccc(N5C(=O)c6cccc7cccc5c67)cc43)[C@H]2C)cc1 | -0.155 |
| CC1CC/C=C\[C@H]2OC34C=CCN(C(C)C)C(=O)[C@H]3N(CCO)C(=O)[C@@H]4C2C(=O)O1 (some centres not stated) | -0.125 |
| COC(=O)C1(CC(C)C)C=C2C(=C(c3ccccc3)C(=O)C2C)CN1 (configuration not stated) | 0.54 |
| COCCOC(=O)N1C(=O)[C@@]2(c3cc(C#CCC(C(=O)OC)C(=O)OC)ccc31)[C@H](c1ccc(OCCO)cc1)N1[C@H](c3ccccc3)[C@H](c3ccccc3)OC(=O)[C@H]1[C@@H]2C(=O)N1CCc2cc(OC)c(OC)cc2C1 | -0.106 |

Respectfully, I request composite z-score for each entry included below.
1. COc1cc(NN2C(C(O)c3cc(OC)c(OC)c(OC)c3)C=CC3C(=O)N(C)C(=O)C32)cc(OC)c1OC (configuration not stated)
2. O=C1[C@H]2C=C(I)[C@H](C[C@@H]2OCCOCCO)[C@@]12CO2
3. COc1cccc(C)c1NC(=O)O[C@H]1[C@H](OC(=O)Nc2ccccc2-c2ccccc2)[C@H](OC(=O)Nc2ccccc2-c2ccccc2)[C@@H](OC)O[C@@H]1CO

stdout:
-0.0028
-0.173
0.0149

###

- assaySummary: FRG1 expression reporter modulators in myotubes – cell-based, C2C12 myotubes, firefly/Renilla luciferase, luminescence, FRG1 inhibition for FSHD, primary screen (AID 1084)
- assayConditions: FRG1 promoter luciferase, higher = more signal, called active from +8 up or from −8 down
The threshold is inclusive: z-score of exactly 0.02 counts as YES; values below receive NO.

Observe how each entry below is paired with its result.
| compound | classification |
| --- | --- |
| CC(C)C(O)C1C=CC2C(=O)N(c3ccccc3)C(=O)C2N1Nc1ccccc1 (centres undefined) | YES |
| [N-]=[N+]=Nc1ccccc1C[C@]1(C(=O)O)COC(c2ccc(OCCCO)cc2)=N1 | YES |
| Cc1cc(C)c(C(O)C2C=CC3C(=O)N(c4ccccc4)C(=O)C3N2Nc2ccccc2F)c(C)c1 (centres undefined) | YES |
| COCCOC(=O)N1C(=O)[C@@]2(c3cc(C#CC4(O)CCCCCC4)ccc31)[C@H](C(=O)Nc1nc3ccccc3s1)[C@H]1C(=O)O[C@H](c3ccccc3)[C@H](c3ccccc3)N1[C@@H]2c1ccc(O)cc1 | YES |

stdin: Given COc1cc(NN2C(C(O)c3ccco3)C=CC3C(=O)N(C)C(=O)C32)cc(OC)c1OC (centres undefined) , state whether its z-score is at least 0.02.
stdout: NO

stdin: I'd appreciate it if you could say whether `C=CCNC(=O)[C@@H]1[C@H]2C(=O)O[C@H](c3ccccc3)[C@H](c3ccccc3)N2[C@H](c2ccccc2OCCO)[C@@]12C(=O)Nc1ccc(C#CCCO)cc12` has z-score at least equal to 0.02.
stdout: NO

stdin: Hi team, for `COc1ccc(C#Cc2ccc3c(c2)[C@]2(C(=O)N3)[C@H](c3ccc(OCCO)cc3)N3[C@H](c4ccccc4)[C@H](c4ccccc4)OC(=O)[C@H]3[C@@H]2C(=O)NC[C@H](O)c2ccccc2)cc1` , is the recorded z-score at or above 0.02?
stdout: NO

stdin: Form field: z-score at least 0.02? Entry: `COc1cccc(C)c1NC(=O)O[C@H]1[C@H](OC(=O)Nc2ccc3c(c2)OCO3)[C@@H](OC(=O)Nc2ccc3c(c2)OCO3)[C@@H](OC)O[C@@H]1CO`
stdout: YES

stdin: Hi team, for `CCOC(=O)C[C@H]1[C@H](OC(=O)c2ccc(C(=O)c3ccccc3)cc2)[C@@H](NC(=O)CC(C)C)c2cc(OCCCO)ccc2N1C(=O)c1ccccc1` , is the recorded z-score at or above 0.02?
stdout: NO

stdin: Check this compound for z-score at or above 0.02: CCCCC(CC)C(O)C1C=CC2C(=O)N(C)C(=O)C2N1Nc1ccccc1 (centres undefined)
stdout: NO

stdin: Could you verify whether the entry `COc1cccc(C)c1NC(=O)O[C@H]1[C@H](OC(=O)Nc2ccccc2-c2ccccc2)[C@H](OC(=O)Nc2ccccc2-c2ccccc2)[C@@H](OC)O[C@@H]1CO` shows z-score of no less than 0.02?
stdout: YES

stdin: Can `CCOC(=O)C1=CC[C@@H](c2ccccc2)N(S(=O)(=O)c2ccc(C)cc2)[C@H]1c1ccccc1` be said to have z-score at or above 0.02?
stdout: NO

stdin: Does the reported z-score for `CCCC=C(CCC)[C@@H](NS(=O)(=O)c1ccc(C(F)(F)F)cc1)c1ccccc1` fall at or above the 0.02 mark?
stdout: YES

stdin: Check the entry `CCCCC=C[C@@H](NC(=O)OCc1ccccc1Cl)c1ccccc1` : does z-score equal or exceed 0.02?
stdout: YES

###

- assaySummary: compound effects on lung adenocarcinoma cell viability – A549, calcein-AM fluorescence, 48 h, basal, profiling panel (AID 1162); further: test concentration not given here
- assayConditions: higher = more signal
Would you mind sorting the entries by z-score according to these classes? I (below -0.1), II (-0.1 to below 0.6), III (0.6 or more)

stdin: Where would `NC(=O)NCC#Cc1ccc2c(c1)[C@]1(C(=O)N2)[C@H](C(=O)N2CCN(c3ncccn3)CC2)[C@H]2C(=O)O[C@H](c3ccccc3)[C@H](c3ccccc3)N2[C@@H]1c1ccc(O)cc1` land among the classes by reported z-score?
stdout: II

stdin: Exam item: assign `C=C(COC)C(=O)CC[C@@H](OC(C)=O)c1cccc(OCCO)c1` to the correct category.
stdout: III

stdin: Assign a category based on measured z-score for `Cc1ccc(S[C@]2(C(=O)NC(C)C)CC(=O)N(Cc3cc(C(F)(F)F)cc(C(F)(F)F)c3)[C@@H]2c2ccc(CO)cc2)cc1` and give only the class name.
stdout: II

stdin: Category of `[N-]=[N+]=Nc1ccccc1C[C@@]1(C(=O)NCCN2CCOCC2)N=C(c2ccc(OCCCO)cc2)O[C@@H]1c1ccccc1N=[N+]=[N-]` , please.
stdout: I

Origin of the recorded values: PubChem BioAssay
